Items are presented alongside their recorded Duration Time of Activity.
- Tested on: renal blood flow rate
- MEASUREMENT_PROTOCOL: Measurement of the renal blood flow increasing activity in anesthetized dogs
- Format: in vivo
- EXPERIMENTAL_PARAMETERS: anesthetized dogs, 1 mg/Kg/min into the crotch vein continuously over 3 minutes
READOUT_LABEL: Duration Time of Activity (min)

1. CC(=O)O.NCC(=O)N1CCC[C@H]1C(=O)NCCc1ccc(O)c(O)c1 [Compound C of Present Invention, N-Glycyl-L-prolyl dopamine acetate]    60
2. CC(=O)O.CC(C)C[C@H](NC(=O)CNC(=O)CN)C(=O)NCCc1ccc(O)c(O)c1 [Compound D of Present Invention, N-Glycylglycyl-L-leucyl dopamine acetate]    20
3. CC(=O)O.CCC(C)C(N)C(=O)NC(C(=O)NCCc1ccc(O)c(O)c1)C(C)C (stereo not drawn) [Compound A of Present Invention, n-l-isoleucylvalyl dopamine acetate]    10
4. CC(=O)O.NCC(=O)NCC(=O)N1CCC[C@H]1C(=O)NCCc1ccc(O)c(O)c1 [Compound E of Present Invention, N-Glycylglycyl-L-prolyl dopamine acetate]    30
5. CC(=O)O.CC[C@H](C)[C@H](N)C(=O)NCCc1ccc(O)c(O)c1 [Known Compound A, N-L-Isoleucyl dopamine acetate]    6

* * *

Recorded Renal Blood Flow Rate Increase Ratio (%) by entry
- Tested on: renal blood flow rate
- MEASUREMENT_PROTOCOL: Measurement of the renal blood flow increasing activity in anesthetized dogs
- Type: in vivo
- EXPERIMENTAL_PARAMETERS: anesthetized dogs, 1 mg/Kg/min into the crotch vein continuously over 3 minutes; increase at highest flow rate relative to flow rate before administration
READOUT_LABEL: Renal Blood Flow Rate Increase Ratio (%)

1. CC(=O)O.CC[C@H](C)[C@H](N)C(=O)NCCc1ccc(O)c(O)c1 [Known Compound A, N-L-Isoleucyl dopamine acetate]    10%
2. CC(=O)O.CC(C)C[C@H](NC(=O)CNC(=O)CN)C(=O)NCCc1ccc(O)c(O)c1 [Compound D of Present Invention, N-Glycylglycyl-L-leucyl dopamine acetate]    37%
3. CC(=O)O.NCC(=O)NCC(=O)N1CCC[C@H]1C(=O)NCCc1ccc(O)c(O)c1 [Compound E of Present Invention, N-Glycylglycyl-L-prolyl dopamine acetate]    36%
4. CC(=O)O.CCC(C)C(N)C(=O)NC(C(=O)NCCc1ccc(O)c(O)c1)C(C)C (stereo not drawn) [Compound A of Present Invention, n-l-isoleucylvalyl dopamine acetate]    33%
5. CC(=O)O.NCC(=O)N1CCC[C@H]1C(=O)NCCc1ccc(O)c(O)c1 [Compound C of Present Invention, N-Glycyl-L-prolyl dopamine acetate]    30%
